The reported numbers originate from PubChem BioAssay (NCI).

Test system: SF-295 CNS
ASSAY NOTES: NCI tumour cell line growth inhibition, 48 h; in the data active = GI50 below about 0.43 µM; inactive = the rest
Outcome codes: 1.0 (active), 0.0 (inactive)

- COMPOUND: "Cc1ccc(Cl)cc1Nc1nc(C(F)(F)F)ccc1C(=O)N/N=C/c1c(Cl)cccc1Cl"
  TESTED SYSTEM: "SF-295 CNS"
  CLASS NAME: 0.0
- COMPOUND: "C[As](C)Sc1ccnc(S[As](C)C)n1"
  TESTED SYSTEM: "SF-295 CNS"
  CLASS NAME: 0.0
- COMPOUND: "O=C(CCCCC(=O)N/N=C\\c1ccccc1Cl)N/N=C\\c1ccccc1Cl"
  TESTED SYSTEM: "SF-295 CNS"
  CLASS NAME: 0.0
- COMPOUND: "O=C(Nc1ncc(Cc2ccccc2)s1)c1ccc2c(c1)OCCO2"
  TESTED SYSTEM: "SF-295 CNS"
  CLASS NAME: 1.0
- COMPOUND: "O=C(/C=C/c1ccccn1)c1ccccc1O"
  TESTED SYSTEM: "SF-295 CNS"
  CLASS NAME: 0.0
- COMPOUND: "CCc1ccc(CCC(=O)Nc2ncc(Cc3cc(Cl)ccc3Cl)s2)o1"
  TESTED SYSTEM: "SF-295 CNS"
  CLASS NAME: 0.0
- COMPOUND: "C=C1C(=O)O[C@H]2[C@H]1CC/C(C=Nc1ccc(C(F)(F)F)cc1N)=C\\CC[C@@]1(C)O[C@@H]21"
  TESTED SYSTEM: "SF-295 CNS"
  CLASS NAME: 0.0
- COMPOUND: "Nc1ncnc2c1c(-c1cccc(OCc3ccccc3)c1)cn2C1CC(CN2CCCC2)C1 (stereo not given)"
  TESTED SYSTEM: "SF-295 CNS"
  CLASS NAME: 0.0
- COMPOUND: "Cn1cc(C2=C(c3c4n(c5ccccc35)CC(CN)C4)C(=O)NC2=O)c2ccccc21 (stereo not given)"
  TESTED SYSTEM: "SF-295 CNS"
  CLASS NAME: 0.0
- COMPOUND: "COc1ccc(Nc2c3c4c(cccc4[nH]c2=O)C(=O)c2ccccc2-3)cc1"
  TESTED SYSTEM: "SF-295 CNS"
  CLASS NAME: 1.0

----------
Tested on: SF-295 CNS
ASSAY NOTES: NCI tumour cell line growth inhibition, 48 h
Entries and their GI50 values follow.
QUANTITY KIND: GI50

- MOLECULE: "COc1ccc(S(=O)(=O)N2CCN(C(=O)OCc3ccccc3)CC2C(=O)NO)cc1 (centres undefined)"
  VAL: "> 25000 nM"
- MOLECULE: "CC(C)c1ccc2c(N=Nc3ccc(S(N)(=O)=O)cc3)c(O)[nH]c2c1"
  VAL: "11200 nM"
- MOLECULE: "C(=N/Nc1ncnc2nc[nH]c12)/c1ccccn1"
  VAL: "774 nM"
- MOLECULE: "O=C(CSc1nc2ccc([N+](=O)[O-])cc2[nH]1)Nc1cccc(Cl)c1"
  VAL: "2070 nM"

----------
Tested on: MOLT-4 leukemia
ASSAY NOTES: NCI tumour cell line growth inhibition, 48 h; in the data active means GI50 below about 0.43 µM; inactive means the rest
Outcome codes: class 1 = active, class 0 = inactive

- COMPOUND: "CN(C)CCCNC(=O)c1cc(NC(=O)CCNC(=O)c2ccc3c(c2)C(=O)c2ccccc2C3=O)cn1C"
  CLASS NAME: "class 0"
- COMPOUND: "O=C(CCCCCCC(=O)N/N=C/c1ccc(N(c2ccccc2)c2ccccc2)cc1)NO"
  CLASS NAME: "class 0"
- COMPOUND: "CCOC(=O)C1=C(N)Oc2c(sc3c(C)cccc23)C1c1ccc(Cl)cc1 (stereo unspecified)"
  CLASS NAME: "class 0"
- COMPOUND: "O=C1Nc2cc(Cl)ccc2Oc2cc(Oc3ccccc3)ccc21"
  CLASS NAME: "class 0"
- COMPOUND: "COc1ccc2nc3cccc([N+](=O)[O-])c3c(NCCN(CCO)CCO)c2c1"
  CLASS NAME: "class 1"
- COMPOUND: "COc1ccc(S(=O)(=O)N2CCN(C(=O)OCc3ccccc3)CC2C(=O)NO)cc1 (stereo unspecified)"
  CLASS NAME: "class 0"

----------
Entries and their TGI values follow.
System: OVCAR-4 ovarian
ASSAY NOTES: NCI tumour cell line growth inhibition, 48 h
QUANTITY KIND: TGI

- MOLECULE: "CCCCCCCCCCCCOC1C(CNC(=O)C2OC3OC(C)(C)OC3C2NC(=O)CN2CCN(c3ccccn3)CC2)OC2OC(C)(C)OC21 (centres undefined)"
  TESTED SYSTEM: "OVCAR-4 ovarian"
  QUANTITY KIND: "TGI"
  VAL: "7.7 µM"
- MOLECULE: "CC1(C)CC(=O)C(C(c2cccc(O)c2O)C2C(=O)CC(C)(C)CC2=O)C(=O)C1"
  TESTED SYSTEM: "OVCAR-4 ovarian"
  QUANTITY KIND: "TGI"
  VAL: "> 100 µM"
- MOLECULE: "CC1(C)CC[C@]2(C(=O)n3ccnc3)CC[C@]3(C)[C@H](C(=O)C=C4[C@@]5(C)C=C(C#N)C(=O)C(C)(C)[C@@H]5CC[C@]43C)[C@@H]2C1"
  TESTED SYSTEM: "OVCAR-4 ovarian"
  QUANTITY KIND: "TGI"
  VAL: "0.173 µM"
- MOLECULE: "COC(=O)CCC(=O)CC(=O)C(=O)Nc1ccc(F)cc1"
  TESTED SYSTEM: "OVCAR-4 ovarian"
  QUANTITY KIND: "TGI"
  VAL: "> 100 µM"
- MOLECULE: "CC1=NN(c2nc(N)nc(C(C)Sc3cc(Cl)c(C)cc3S(N)(=O)=O)n2)C(C)(C)C1 (centres undefined)"
  TESTED SYSTEM: "OVCAR-4 ovarian"
  QUANTITY KIND: "TGI"
  VAL: "> 10 µM"
- MOLECULE: "O=C1ON(Cc2ccccc2)C(c2ccccc2)N1c1ccccc1 (centres undefined)"
  TESTED SYSTEM: "OVCAR-4 ovarian"
  QUANTITY KIND: "TGI"
  VAL: "> 100 µM"
- MOLECULE: "Nc1ccccc1/C=N\\Nc1ccccc1"
  TESTED SYSTEM: "OVCAR-4 ovarian"
  QUANTITY KIND: "TGI"
  VAL: "> 100 µM"
- MOLECULE: "COc1cc(CNc2nc3ccccc3nc2-c2cccs2)cc(OC)c1OC"
  TESTED SYSTEM: "OVCAR-4 ovarian"
  QUANTITY KIND: "TGI"
  VAL: "23.4 µM"
- MOLECULE: "CCOC(=O)N1CC2(C(=O)OC)C=CC1C(C(=O)OC)C2 (centres undefined)"
  TESTED SYSTEM: "OVCAR-4 ovarian"
  QUANTITY KIND: "TGI"
  VAL: "> 100 µM"
- MOLECULE: "COc1ccc(-n2nnc3c(C#N)c(-c4ccccc4)c(C)n3c2=O)cc1"
  TESTED SYSTEM: "OVCAR-4 ovarian"
  QUANTITY KIND: "TGI"
  VAL: "> 100 µM"
- MOLECULE: "COc1cc(-c2cc(/C=C/C(=O)c3ccc4c(c3)OCO4)[nH]n2)cc(OC)c1OC"
  TESTED SYSTEM: "OVCAR-4 ovarian"
  QUANTITY KIND: "TGI"
  VAL: "> 100 µM"
- MOLECULE: "CCOCCc1c(O)nc(SC)[nH]c1=O"
  TESTED SYSTEM: "OVCAR-4 ovarian"
  QUANTITY KIND: "TGI"
  VAL: "> 100 µM"
- MOLECULE: "COc1ccc2nc3cc(Cl)ccc3c(NCCC(=O)OCC(O)C(O)C(O[C@H](C)C(=O)NC(C)C(=O)NC(CCC(N)=O)C(=O)OCc3ccccc3)C(C=O)NC(C)=O)c2c1 (some centres undefined)"
  TESTED SYSTEM: "OVCAR-4 ovarian"
  QUANTITY KIND: "TGI"
  VAL: "34.3 µM"
- MOLECULE: "CC1CC(=O)N2CCCNC2=C1C#N (centres undefined)"
  TESTED SYSTEM: "OVCAR-4 ovarian"
  QUANTITY KIND: "TGI"
  VAL: "> 100 µM"

----------
System: COLO 205 colon
ASSAY NOTES: NCI tumour cell line growth inhibition, 48 h

- COMPOUND: "O=C1ON(Cc2ccccc2)C(c2ccccc2)N1c1ccccc1 (stereo not drawn)"
  TESTED SYSTEM: "COLO 205 colon"
  TGI: "> 100 µM"
- COMPOUND: "COc1c(C(=O)/C(=N/Nc2ccccc2)C(C)=O)c(O)c(OC)c2occc12"
  TESTED SYSTEM: "COLO 205 colon"
  TGI: "> 100 µM"
- COMPOUND: "C(=N/Nc1ncnc2nc[nH]c12)/c1ccccn1"
  TESTED SYSTEM: "COLO 205 colon"
  TGI: "> 100 µM"
- COMPOUND: "Nc1ccc2cc(S(=O)(=O)O)cc(O)c2c1N=Nc1ccc(NC(=O)Nc2ccc(N=Nc3c(N)ccc4cc(S(=O)(=O)O)cc(O)c34)c(S(=O)(=O)O)c2)cc1S(=O)(=O)O"
  TESTED SYSTEM: "COLO 205 colon"
  TGI: "> 100 µM"
- COMPOUND: "COc1ccc(C(=O)/C(=N/Nc2ccccc2)c2ccc(OC)cc2)cc1"
  TESTED SYSTEM: "COLO 205 colon"
  TGI: "> 100 µM"
- COMPOUND: "Cn1c(=O)nc2n(CCO)ccnc-2c1=O"
  TESTED SYSTEM: "COLO 205 colon"
  TGI: "> 100 µM"
- COMPOUND: "Brc1ccccc1/C=C\\C1(c2ccccc2)OCCO1"
  TESTED SYSTEM: "COLO 205 colon"
  TGI: "37.7 µM"
- COMPOUND: "O=c1n(CCCN2CCN(c3cccc(Cl)c3)CC2)nc2n1-c1ccc3ccccc3c1SC2"
  TESTED SYSTEM: "COLO 205 colon"
  TGI: "> 100 µM"
